Entry source: paper PMC3961306

Can you tell me %-inhibition, CaMK2β for the items I'm about to list?
Target Or Test System: panel of more than 300 wild-type and mutant kinases (313 kinase panel) (Homo sapiens, UniProt Q13554)
Sequence (Q13554 whole entry, change not shown): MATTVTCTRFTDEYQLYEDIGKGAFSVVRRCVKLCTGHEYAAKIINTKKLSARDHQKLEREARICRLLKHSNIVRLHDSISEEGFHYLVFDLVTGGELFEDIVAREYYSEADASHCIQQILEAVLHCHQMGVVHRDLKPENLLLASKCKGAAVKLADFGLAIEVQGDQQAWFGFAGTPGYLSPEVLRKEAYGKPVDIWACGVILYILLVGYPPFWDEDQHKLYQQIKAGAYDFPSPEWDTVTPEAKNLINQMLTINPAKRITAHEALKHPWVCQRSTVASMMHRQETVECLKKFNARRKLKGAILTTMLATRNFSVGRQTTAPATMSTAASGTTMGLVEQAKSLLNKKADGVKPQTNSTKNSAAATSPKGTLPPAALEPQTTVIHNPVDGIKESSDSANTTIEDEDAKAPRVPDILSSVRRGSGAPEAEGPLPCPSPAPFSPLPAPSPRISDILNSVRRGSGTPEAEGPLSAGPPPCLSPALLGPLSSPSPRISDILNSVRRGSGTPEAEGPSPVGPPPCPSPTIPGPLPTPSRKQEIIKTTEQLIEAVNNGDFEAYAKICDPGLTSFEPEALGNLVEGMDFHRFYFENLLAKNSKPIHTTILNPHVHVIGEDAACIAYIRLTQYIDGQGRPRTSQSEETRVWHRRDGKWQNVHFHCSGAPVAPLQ
Test Details: Kinase profiling in a biochemical assay panel (mobility shift assays and ELISA), %-inhibition at 1 μM; selectivity entropy
Test Parameters: kinase CaMK2β; 1 μM compound
API: value field is a number in %; no unit string.

-- ask Provide measured %-inhibition, CaMK2β value, entry: `O=S(=O)(c1cccc2cnccc12)N1CCCNCC1`
-- reply 2.58

-- ask Provide measured %-inhibition, CaMK2β value, entry: `COc1cc2c(Nc3ccc(Br)cc3F)ncnc2cc1OCC1CCN(C)CC1`
-- reply -4.23

-- ask Provide measured %-inhibition, CaMK2β value, entry: `CC(C)(C)c1nc(-c2cccc(NS(=O)(=O)c3c(F)cccc3F)c2F)c(-c2ccnc(N)n2)s1`
-- reply -0.277

-- ask Provide measured %-inhibition, CaMK2β value, entry: COc1cc2nccc(Oc3ccc(NC(=O)C4(C(=O)Nc5ccc(F)cc5)CC4)cc3)c2cc1OC [cabozantinib]
-- reply -4

-- ask Provide measured %-inhibition, CaMK2β value, entry: `CC(=O)Nc1cccc(-n2c(=O)n(C3CC3)c(=O)c3c(Nc4ccc(I)cc4F)n(C)c(=O)c(C)c32)c1`
-- reply 0.738

-- ask Provide measured %-inhibition, CaMK2β value, entry: `CNC(=O)c1cc(Oc2ccc(NC(=O)Nc3ccc(Cl)c(C(F)(F)F)c3)c(F)c2)ccn1`
-- reply -9
